Each record here notes measured normalized growth.
- TEST PROTOCOL: chemical genetic growth profiling, strain panel (AID 1159580);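 also: tested at 20 µM; growth read once vehicle control cultures reached saturation at 30 °C; 1 = growth at the plate median or of vehicle wells; lower values mean less growth of the strain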
- STUDY CONDITIONS: S. cerevisiae deletion strains, growth OD, locus YCL011C, strain gbp2, active compounds read low
Hit rate of the full screen: of about 5,500 compounds, about 2,000 (36%) were called active. Roughly 18% stayed inconclusive and do not appear here. The list shows a part of the results.
MEASUREMENT NAME: normalized growth

molecule=C[n+]1ccccc1/C=N/O measurement_name="normalized growth" val=1.01
molecule="CC(=O)O[C@@H]1CC2C(C)(C)C(=O)C=C[C@]2(C)C2CC[C@]3(C)C(=CC(=O)O[C@H]3c3ccoc3)[C@@]21C (stereo partly drawn)" measurement_name="normalized growth" val=0.993
molecule="CC(=O)O[C@H]1CC[C@@]2(C)C(C[C@@H](OC(C)=O)[C@@]3(C)C4=CC(=O)O[C@@H](c5ccoc5)[C@]4(C)CCC23)C1(C)C (stereo partly drawn)" measurement_name="normalized growth" val=1.01
molecule="CC(C)=CCCC(C)[C@@H]1CC[C@]2(C)C3=C(CC[C@@]12C)C1(C)CC[C@H](O)C(C)(C)C1CC3 (stereo partly drawn)" measurement_name="normalized growth" val=1.07
molecule=CCN(CC)CCOCCOC(=O)C1(c2ccccc2)CCCC1 measurement_name="normalized growth" val=0.99
molecule="Cc1c(C)c2c(c(C)c1O)CCC(C)(CCCC(C)CCCC(C)CCCC(C)C)O2 (stereo not drawn)" measurement_name="normalized growth" val=0.972
molecule="CC(=O)O[C@H]1CCC2(C)C3=C(CCC2C1(C)C)[C@]1(C)CCC(C(C)CCC=C(C)C)[C@@]1(C)CC3 (stereo partly drawn)" measurement_name="normalized growth" val=1.01
molecule="CC(=O)O[C@@H]1CC2C(C)(C)[C@H](O)C=C[C@]2(C)C2CC[C@]3(C)C(=CC(=O)O[C@H]3c3ccoc3)[C@@]21C (stereo partly drawn)" measurement_name="normalized growth" val=0.996

* * *

- TEST PROTOCOL: chemical genetic growth profiling, strain panel (AID 1159580);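 also: tested at 20 µM; growth read once vehicle control cultures reached saturation at 30 °C; 1 = growth at the plate median or of vehicle wells; lower values mean less growth of the strain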
- STUDY CONDITIONS: S. cerevisiae deletion strains, growth OD, locus YDR335W, strain msn5, active compounds read low
About 2,000 (36%) of roughly 5,500 compounds were called active. Not shown: some 18% with an inconclusive outcome. Some of the results follow.
Listing of recorded normalized growth by entry.
MEASUREMENT NAME: normalized growth

compound=NC1=NCCN1CC(=O)O val="1.01 (inactive)"
compound=CN(C)CCCN1c2ccccc2Sc2ccccc21 val="0.994 (inactive)"
compound=CN(C)CCCN1c2ccccc2CCc2ccc(Cl)cc21 val="1 (inactive)"
compound=CN(C)CCCN1c2ccccc2Sc2ccc(C(F)(F)F)cc21 val="1.02 (inactive)"
compound=CN(C)CCCN1c2ccccc2Sc2ccc(Cl)cc21 val="0.158 (active)"
compound=N[C@@H](CCC(=O)N[C@@H](CS)C(=O)NCC(=O)O)C(=O)O val="0.987 (inactive)"
compound="COc1ccc(C2Sc3ccccc3N(CCN(C)C)C(=O)C2OC(C)=O)cc1 (stereo not drawn)" val="0.943 (inactive)"
compound="COc1ccccc1OCC(O)CO (stereo not drawn)" val="1.03 (inactive)"

* * *

- TEST PROTOCOL: chemical genetic growth profiling, strain panel (AID 1159580);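 also: tested at 20 µM; growth read once vehicle control cultures reached saturation at 30 °C; 1 = growth at the plate median or of vehicle wells; lower values mean less growth of the strain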
- STUDY CONDITIONS: S. cerevisiae deletion strains, growth OD, locus YNL183C, strain NPR1, active compounds read low
Out of some 5,500 compounds screened, about 2,000 (36%) were called active. Inconclusive results (about 18%) are left out. This is one part of the list.
Field 'label' (enum: label 1 / label 0). Set to label 1 when normalized growth is strictly under 0.9; else label 0.

compound=NCC(=O)c1ccccc1 class="label 0"
compound=COC(=O)c1c(C)c2c(c(C)c1O)OC(=O)c1c(C)c(Cl)c(O)c(Cl)c1O2 class="label 0"
compound=CN(C)C(=O)Oc1cccc([N+](C)(C)C)c1 class="label 0"
compound=OC(COc1ccc(F)cc1)(c1ccc(Cl)cc1)c1ccc(Cl)cc1 class="label 0"
compound=CCOC(=O)/C(C#N)=C(\Nc1ccc(C(=O)OCC)cc1)SC class="label 0"
compound="CC(C)(C)NCC(O)c1ccc(O)c(CO)c1 (centres undefined)" class="label 0"
compound="CC(=O)O[C@@H]1C=C[C@@]2(C)C(C[C@@H](OC(C)=O)[C@@]3(C)C4=CC(=O)O[C@@H](c5ccoc5)[C@]4(C)CCC23)C1(C)C (some centres undefined)" class="label 0"
compound="COC1CC2CCC(C)C(O)(O2)C(=O)C(=O)N2CCCCC2C(=O)OC(C(C)CC2CCC(O)C(OC)C2)CC(=O)C(C)/C=C(\\C)C(O)C(OC)C(=O)C(C)CC(C)/C=C/C=C/C=C/1C (centres undefined)" class="label 1"
compound=O=C1c2cccc3c(Sc4ccccc4)ccc(c23)C(=O)N1NCCO class="label 1"
compound=O=C(O)C1=CCCNC1 class="label 0"
compound=COC(=O)[C@H](Cc1ccccc1)NC(=O)/C(=C1\OC(=O)C(c2ccccc2)=C1O)c1ccccc1 class="label 0"
compound="CC(=O)O[C@@H]1CC[C@@]2(C)C(C[C@@H](OC(C)=O)[C@@]3(C)C4=CC(=O)O[C@@H](c5ccoc5)[C@]4(C)CCC23)C1(C)C (some centres undefined)" class="label 0"
compound=CN(C)CCCN1c2ccccc2Sc2ccc(C(F)(F)F)cc21 class="label 0"
compound=CC1=CC(=O)c2ccccc2C1=O class="label 1"
compound=CN[C@@H]1[C@H](O)[C@H](NC)[C@H]2O[C@@]3(O)C(=O)C[C@@H](C)O[C@H]3O[C@@H]2[C@H]1O class="label 0"
compound=NC(=O)NC(=O)Cc1ccccc1 class="label 0"
compound=O=C(OOC(=O)c1ccccc1)c1ccccc1 class="label 1"
compound="COc1ccc(C2Sc3ccccc3N(CCN(C)C)C(=O)C2OC(C)=O)cc1 (centres undefined)" class="label 0"
compound="C[C@H](CCC(=O)O)[C@H]1CCC2C3C(=O)CC4CC(=O)CC[C@]4(C)C3CC(=O)[C@@]21C (some centres undefined)" class="label 0"
compound="CC(=O)O[C@@H]1CC2C(C)(C)C(=O)C=C[C@]2(C)C2CC[C@]3(C)C(=CC(=O)O[C@H]3c3ccoc3)[C@@]21C (some centres undefined)" class="label 0"
compound="NC(Cn1ccc(=O)c(O)c1)C(=O)O (centres undefined)" class="label 0"
compound=Cc1c(C)c(C)c(C(=O)c2ccc(N=Cc3cc(Cl)cc(Cl)c3O)cc2)c(C)c1C class="label 1"
compound="CC(C)CCCC(C)[C@H]1CCC2C3C(=O)C=C4C[C@@H](O)CC[C@]4(C)C3CC[C@@]21C (some centres undefined)" class="label 0"
compound=CCN(CC)CCOC(=O)C1(C2CCCCC2)CCCCC1 class="label 0"
compound="COc1ccccc1OCC(O)CO (centres undefined)" class="label 0"
compound=O=C(Nc1ccc(F)cc1F)c1cc(Cl)c(-n2cccc2)c(Cl)c1 class="label 0"
compound=CC(=O)c1ccc(Cl)c(N=Cc2cc(Br)cc(Br)c2O)c1 class="label 1"
compound=CN(C)CCCN1c2ccccc2CCc2ccc(Cl)cc21 class="label 0"
compound=C/C1=C/CC(C)(C)/C=C/C/C(C)=C/CC1 class="label 0"
compound="CCN(CC)CCOC(=O)C(c1ccccc1)C1CCCCC1 (centres undefined)" class="label 0"
compound=CCOC(=O)c1ccc(Cl)c(N=Cc2cc(Cl)cc(Cl)c2O)c1 class="label 1"
compound="CC(C)c1ccc2c(c1)CCC1[C@](C)(CN)CCC[C@]21C (some centres undefined)" class="label 0"

* * *

Each item that follows carries a reported normalized growth.
- TEST PROTOCOL: chemical genetic growth profiling, strain panel (AID 1159580);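 also: tested at 20 µM; growth read once vehicle control cultures reached saturation at 30 °C; 1 = growth at the plate median or of vehicle wells; lower values mean less growth of the strain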
- STUDY CONDITIONS: S. cerevisiae deletion strains, growth OD, locus YNL322C, strain KRE1 (second series), active compounds read low
Screen size: about 5,500 compounds; about 2,000 (36%) were called active. Roughly 18% stayed inconclusive and do not appear here. This is one part of the list.
MEASUREMENT NAME: normalized growth

compound="CO[C@H]1CC(O[C@@H]2/C(C)=C/C[C@@H]3C[C@@H](C[C@]4(CC[C@H](C)[C@@H](C5CCCCC5)O4)O3)OC(=O)[C@@H]3C=C(C)/C(=N\\O)[C@H]4OC/C(=C\\C=C\\[C@@H]2C)[C@]43O)O[C@@H](C)C1O (some centres undefined)" measurement_name="normalized growth" val=1.02
compound="CCN1CCN(C(=O)NC(C(=O)N[C@@H]2C(=O)N3[C@@H]2SC(C)(C)[C@@H]3C(=O)O)c2ccccc2)C(=O)C1=O (some centres undefined)" measurement_name="normalized growth" val=1
compound="CC(Cc1cccc(C(F)(F)F)c1)NCCOC(=O)c1ccccc1 (centres undefined)" measurement_name="normalized growth" val=1.01
compound=Cc1nc(N)cc(C[n+]2csc(CCO)c2C)n1 measurement_name="normalized growth" val=0.964
compound="CC(C)NCC(O)COc1ccc(COCCOC(C)C)cc1 (centres undefined)" measurement_name="normalized growth" val=0.987
compound="CC(C)=CC1C(C(=O)O)C1(C)C (centres undefined)" measurement_name="normalized growth" val=0.973
compound=CN[C@@H]1[C@H](O)[C@H](NC)[C@H]2O[C@@]3(O)C(=O)C[C@@H](C)O[C@H]3O[C@@H]2[C@H]1O measurement_name="normalized growth" val=1
compound="COc1ccccc1OCC(O)CO (centres undefined)" measurement_name="normalized growth" val=1.04
compound="Cc1c(C)c2c(c(C)c1O)CCC(C)(CCCC(C)CCCC(C)CCCC(C)C)O2 (centres undefined)" measurement_name="normalized growth" val=0.994
